Target: T1, 4H2698-AA
T1 chain: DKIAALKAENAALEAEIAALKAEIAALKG
Test: two-hybrid library CCmax;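 further: natural log of median RNA to DNA barcode read ratio; higher means stronger binding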
Conditions: mean of both orientations
Attribute Measured: interaction score

[a] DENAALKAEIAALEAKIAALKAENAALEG [4H1579-AA]
[b] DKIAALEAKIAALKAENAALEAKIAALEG [4H2389-AA]
For the pair a and b , which entry has the numerically smaller recorded interaction score? Give the label of your selection.
a

[A] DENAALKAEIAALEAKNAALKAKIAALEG [4H1597-AA]
[B] DKIAALKAEIAALKAENAALKAEIAALEG [4H2649-AA]
[C] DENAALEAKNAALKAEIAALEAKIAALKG [4H1478-AA]
[D] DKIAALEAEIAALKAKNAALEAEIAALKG [4H2162-AA]
Form: Sort by [interaction score] Order [ ascending ] In your reply, arrange the labels in the requested order.
D, B, A, C
(D: -1.79, B: -1.14, A: -0.556, C: 1.64)
